B1: MYOZ1 (parent)
chain: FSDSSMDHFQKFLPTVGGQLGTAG

- Variants of: B1
- experimentalProtocol: protein stability index of a GFP-peptide fusion (GPS, HEK-293T) (PSI 1-6); higher = more stable;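 also: lentivirally expressed fusions sorted by FACS into six bins by GFP to DsRed ratio, PSI derived from sequencing read proportions per bin multiplied by bin number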
- experimentalConditions: c terminus: a fixed tail appended
measurementName: protein stability index

Examples with their reported protein stability index follow.
{"columns": ["variantLabel", "result"],
 "data": [
  ["D3Y", 2.02],
  ["A23L", 2.01],
  ["D3A", 1.96],
  ["G24Q", 1.98],
  ["D7E", 2.02]
]}

Problem: Given the entry G18K , report its measured protein stability index.
Result: 2

Each recorded value in this set is attributed to the supplement of paper PMC10567573.
